target: PI 3-kinase delta (Homo sapiens, UniProt O00329); assay: TR-FRET Adapta assay, assay F; details: read-out: Assay F PI3Kδ IC50
Sequence (O00329 whole entry): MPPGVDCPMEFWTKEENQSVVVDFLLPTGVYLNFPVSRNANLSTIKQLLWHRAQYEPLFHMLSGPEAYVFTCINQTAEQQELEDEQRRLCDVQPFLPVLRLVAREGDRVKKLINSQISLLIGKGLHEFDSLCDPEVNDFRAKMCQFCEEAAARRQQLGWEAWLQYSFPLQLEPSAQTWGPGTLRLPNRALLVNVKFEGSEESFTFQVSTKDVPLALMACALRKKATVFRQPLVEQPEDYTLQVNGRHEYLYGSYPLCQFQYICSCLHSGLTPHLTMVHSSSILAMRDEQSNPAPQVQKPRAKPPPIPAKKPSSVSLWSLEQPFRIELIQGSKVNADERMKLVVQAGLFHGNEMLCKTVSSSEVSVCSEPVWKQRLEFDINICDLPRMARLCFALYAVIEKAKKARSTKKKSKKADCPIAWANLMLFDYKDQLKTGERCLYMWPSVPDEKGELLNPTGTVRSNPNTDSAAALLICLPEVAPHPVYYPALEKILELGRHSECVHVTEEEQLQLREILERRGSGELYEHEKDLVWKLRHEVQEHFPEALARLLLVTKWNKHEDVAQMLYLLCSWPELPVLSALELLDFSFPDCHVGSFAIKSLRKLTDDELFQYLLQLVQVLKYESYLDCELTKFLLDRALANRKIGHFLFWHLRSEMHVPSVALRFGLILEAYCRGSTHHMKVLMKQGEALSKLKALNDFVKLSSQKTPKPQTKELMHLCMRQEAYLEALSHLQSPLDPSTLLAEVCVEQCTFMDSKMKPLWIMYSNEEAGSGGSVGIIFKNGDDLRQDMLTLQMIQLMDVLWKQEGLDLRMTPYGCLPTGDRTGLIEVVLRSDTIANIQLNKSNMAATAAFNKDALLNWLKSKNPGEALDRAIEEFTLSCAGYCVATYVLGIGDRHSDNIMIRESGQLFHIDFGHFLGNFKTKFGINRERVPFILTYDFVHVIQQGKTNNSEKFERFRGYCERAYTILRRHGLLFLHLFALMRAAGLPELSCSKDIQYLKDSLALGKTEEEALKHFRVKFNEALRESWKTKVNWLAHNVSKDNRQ
Sequence (P27986 461-568 partner): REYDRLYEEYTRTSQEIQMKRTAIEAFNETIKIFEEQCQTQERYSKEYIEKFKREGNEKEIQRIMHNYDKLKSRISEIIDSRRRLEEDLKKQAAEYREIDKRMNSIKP
# pIC50 per entry
Note on pIC50: it is the negative log10 of concentration, concentration in mol/L.

In [3]: df
Out[3]:
                                   compound  measured_endpoint  assay_value
0  Cc1cc(-c2nc(-c3cc(S(=O)(=O)NC4CCOCC4)ccc3C)cnc2N)ccn1              pIC50         6.03
1  Cc1cc(-c2nc(-c3cc(S(=O)(=O)NCC(C)(C)CN(C)C)ccc3C)cnc2N)ccn1              pIC50         5.18
2  Cc1ccc(S(=O)(=O)NC[C@](C)(O)C(F)(F)F)cc1-c1cnc(N)c(-n2cncn2)n1              pIC50         6.44
3  Cc1ccc(S(=O)(=O)NC2CC3(CC(O)C3)C2)cc1-c1cnc(N)c(-n2cncn2)n1 (centres unmarked)              pIC50         6.80
4  Cc1ncc(-c2nc(-c3cc(S(=O)(=O)NCC4(CO)COC4)ccc3C)cnc2N)s1              pIC50         6.82

Field request: pIC50 | item: COc1ccc(-c2nc(-c3cc(S(=O)(=O)NCCC(C)(C)O)ccc3C)cnc2N)c(C)n1
5.84

Field request: pIC50 | item: Cc1ccc(S(=O)(=O)NCC2(C)COC2)cc1-c1cnc(N)c(-c2cn(C)nc2C)n1
6.23

Field request: pIC50 | item: COc1ncccc1-c1nc(-c2cc(S(=O)(=O)NCCC(C)(C)O)ccc2C)cnc1N
5.24
